# studyTarget: E. coli single-stranded DNA binding protein (SSB) (Escherichia coli, UniProt P0AGE0 1-178)
# Sequence (P0AGE0 whole entry): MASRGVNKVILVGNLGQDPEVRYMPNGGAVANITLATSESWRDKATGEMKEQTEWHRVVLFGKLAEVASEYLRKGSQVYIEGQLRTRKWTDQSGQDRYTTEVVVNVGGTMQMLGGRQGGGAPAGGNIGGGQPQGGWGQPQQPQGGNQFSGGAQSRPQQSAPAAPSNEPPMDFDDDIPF
# procedureSummary: single-molecule free solution hydrodynamic separation
reportedMetric: pKd
// returns pKd (minus log10 of molar concentration), number only

# input Consider the binder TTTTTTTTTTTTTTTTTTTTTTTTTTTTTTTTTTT (ssDNA) [35nt poly(dT)] and give its measured pKd.
# output 8.00
